Hi there, I'd appreciate the recorded pKd for every entry that follows.
Experimental system: recombinant mouse CTLA-4 protein (mouse) (UniProt P09793)
Sequence (P09793 36-161 limits assumed): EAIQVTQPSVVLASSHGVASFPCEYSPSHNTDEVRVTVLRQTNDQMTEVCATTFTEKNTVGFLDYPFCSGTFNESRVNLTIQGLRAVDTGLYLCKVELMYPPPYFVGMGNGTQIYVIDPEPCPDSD
Method description: SPR (Pioneer FE, OneStep), 25 C; 3xFLAG scFv captured by anti-FLAG M2, mouse CTLA-4 as analyte
In simple prose, pKd is minus the logarithm base ten of a concentration in moles per litre.

Lab note: 78-8 scFv (scFv, part only; not given: Linker, domain order, 3xFLAG tag, V domains shown, not shown: another chain or arm of the molecule; small tags and cut ends) VH: EVQLVESGGGLVQPGGSLRLSCAASGFTFSSYVMHWVRQAPGKGLEWVSAISGSGGGTYYADSVKGRFTISRDNSKNTLYLQMNSLRAEDTAVYYCARGRLIGLALYGEAFDVWGQGTLVTVSS VL: DIQMTQSPSSLSASVGDRVTITCQASKDISNYLNWYQQKPGKAPKLLIYDASNLETGVPSRFSGSGSGTDFTFTISSLQPEDIATYYCQQFNSFPLTFGQGTKVEIK gave pKd of 10.22

Reported pKd of 78-8D14 scFv (scFv, part only; not given: Linker, domain order, 3xFLAG tag, V domains shown, not shown: another chain or arm of the molecule; small tags and cut ends) VH: EVQLVESGGGLVQPGGSLRLSCAASGFTFSSYVMHWVRQAPGKGLEWVSAISWSGRGTYYADSVKGRFTISRDNSKNTLYLQMNSLRAEDTAVYYCARGRLFGLARYGEAFDVWGQGTLVTVSS VL: DIQMTQSPSSLSASVGDRVTITCQASRDISNYLNWYQQKPGKAPKLLIYDASNLETGVPSRFSGSGSGTDFTFTISSLQPEDIATYYCQQFNSFPLTFGQGTKVEIK : 9.77

Quick note, pKd for 78-24D17 scFv (scFv, part only; not given: Linker, domain order, 3xFLAG tag, V domains shown, not shown: another chain or arm of the molecule; small tags and cut ends) VH: EVQLVESGGGLVQPGGSLRLSCAASGFTFSSSSMHWVRQAPGKGLEWVSGISGSGGSTSYADSVKGRFTISRDNSKNTLYLQMNSLRAEDTAVYYCARYLMSFNLTRTSWFDVWGQGTLVTVSS VL: DIQMTQSPSSLSASVGDRVTITCQASQAISNYLNWYQQKPGKAPKLLIYDASNLETGVPSRFSGSGSGTDFTFTISSLQPEDIATYYCQQGDAWPWTFGQGTKVEIK landed at 8.97
